test: Inhibition of recombinant human His-tagged RAD51 expressed in Escherichia coli Rosetta2(DE3)pLysS cells/BRCA2 (unknown origin) by ELISA
pEC50: −log10 of the molar value.
Collected pEC50 values appear next to each entry.
TEST_READOUT: pEC50

STRUCTURE_AS_SMILES: COc1cccc(/C=N/NC(=O)CCCOc2ccc(Cl)cc2Cl)c1
RECORDED_NUMBER: 4.22
//
STRUCTURE_AS_SMILES: O=C(CCCOc1ccc(Cl)cc1Cl)N/N=C/c1cccnc1F
RECORDED_NUMBER: 4.72
//
STRUCTURE_AS_SMILES: O=C(CCCOc1ccc(Cl)cc1Cl)N/N=C/c1cc2c(s1)CCCC2
RECORDED_NUMBER: 4.07
//
STRUCTURE_AS_SMILES: COc1ccc(/C=N/NC(=O)CCCOc2ccc(Cl)cc2Cl)cn1
RECORDED_NUMBER: 3.96
//
STRUCTURE_AS_SMILES: O=C(CCCOc1ccc(Cl)cc1Cl)N/N=C/c1ccc(C(F)(F)F)nc1
RECORDED_NUMBER: 4.74
//
STRUCTURE_AS_SMILES: CN(C)c1ccc(/C=N/NC(=O)[C@H](Cc2ccccc2)NC(=O)OC(C)(C)C)cc1
RECORDED_NUMBER: 4.15
//
STRUCTURE_AS_SMILES: O=C(CCCOc1ccc(Cl)cc1Cl)N/N=C/c1ccc2nccnc2c1
RECORDED_NUMBER: 4.46
//
STRUCTURE_AS_SMILES: O=C(CCCOc1ccc(Cl)cc1Cl)N/N=C/c1cccc(C(F)(F)F)c1
RECORDED_NUMBER: 4.72
//
STRUCTURE_AS_SMILES: O=C(CCCOc1ccc(Cl)cc1Cl)N/N=C/c1ccc2cc[nH]c2c1
RECORDED_NUMBER: 4.30
//
STRUCTURE_AS_SMILES: Cc1cccc(Cn2nc(C(C)(C)C)cc2C(=O)N/N=C/c2ccc(N(C)C)cc2)c1
RECORDED_NUMBER: 3.89

This collection of values is drawn from ChEMBL document CHEMBL5126615.
